# Test system: Pseudomonas aeruginosa ATCC 9027
# PROTOCOL TEXT: ≥ marks a high value that may be exact or a test limit, other limits are often not marked, values filed in µg/mL are converted to µM
PROPERTY LABEL: MIC (µM)
Your answer is read as µM, so omit the unit and give the number.

Study these solved cases before continuing.
{"SMILES CODE": "CC(C)C[C@H](NC(=O)[C@H](CC(C)C)NC(=O)[C@H](CCCCN)NC(=O)[C@H](CCCCN)NC(=O)[C@H](CC(C)C)NC(=O)[C@H](CC(C)C)NC(=O)[C@H](CCCCN)NC(=O)[C@H](CCCCN)NC(=O)[C@H](CC(C)C)NC(=O)[C@@H](N)CC(C)C)C(=O)N[C@@H](CCCCN)C(=O)N[C@@H](CCCCN)C(N)=O", "MEASURED ON": "Pseudomonas aeruginosa ATCC 9027", "MEASUREMENT": 43}
{"SMILES CODE": "CC[C@H](C)[C@H](NC(=O)[C@H](C)NC(=O)[C@H](CCCCN)NC(=O)[C@H](C)NC(=O)[C@@H](NC(=O)[C@H](C)NC(=O)[C@H](CC(C)C)NC(=O)[C@H](CC(C)C)NC(=O)[C@H](C)NC(=O)[C@H](CCCCN)NC(=O)[C@H](CC(C)C)NC(=O)[C@H](CC(N)=O)NC(=O)[C@@H](N)CC(C)C)C(C)C)C(=O)N[C@@H](CC(C)C)C(N)=O", "MEASURED ON": "Pseudomonas aeruginosa ATCC 9027", "MEASUREMENT": 16}
{"SMILES CODE": "CC(C)C[C@H](NC(=O)[C@H](CC(C)C)NC(=O)[C@H](CCCCN)NC(=O)[C@H](CCCCN)NC(=O)[C@H](C)NC(=O)[C@H](CC(C)C)NC(=O)[C@H](CCCCN)NC(=O)[C@H](C)NC(=O)[C@H](CC(C)C)NC(=O)[C@H](C)NC(=O)[C@H](CCCCN)NC(=O)[C@H](C)NC(=O)[C@@H](N)Cc1ccccc1)C(N)=O", "MEASURED ON": "Pseudomonas aeruginosa ATCC 9027", "MEASUREMENT": 3.53}
{"SMILES CODE": "NCC(=O)N[C@@H](CCCN=C(N)N)C(=O)N[C@@H](CCCN=C(N)N)C(=O)N[C@@H](Cc1c[nH]c2ccccc12)C(=O)N[C@@H](Cc1c[nH]c2ccccc12)C(=O)N[C@@H](Cc1c[nH]c2ccccc12)C(=O)N[C@@H](CCCN=C(N)N)C(=O)N[C@@H](CCCN=C(N)N)C(=O)NCC(N)=O", "MEASURED ON": "Pseudomonas aeruginosa ATCC 9027", "MEASUREMENT": 128}
{"SMILES CODE": "CC(C)C[C@H](NC(=O)[C@H](CC(C)C)NC(=O)CNC(=O)CNC(=O)CNC(=O)CNC(=O)CNC(=O)CNC(=O)CNC(=O)CNC(=O)CNC(=O)[C@H](CC(C)C)NC(=O)[C@H](CC(C)C)NC(=O)[C@@H]1CCCN1C(=O)CNC(=O)[C@H](CC(C)C)NC(=O)[C@H](CC(C)C)NC(=O)CNC(=O)CNC(=O)[C@H](CC(C)C)NC(=O)[C@H](CC(C)C)NC(=O)CN)C(=O)O", "MEASURED ON": "Pseudomonas aeruginosa ATCC 9027", "MEASUREMENT": 8}
{"SMILES CODE": "CC(C)C[C@H](NC(=O)[C@H](CC(C)C)NC(=O)[C@H](CCCCN)NC(=O)[C@H](CCCCN)NC(=O)[C@H](C)NC(=O)[C@H](C)NC(=O)[C@H](CC(C)C)NC(=O)[C@H](CCCCN)NC(=O)[C@H](CC(C)C)NC(=O)[C@H](CC(C)C)NC(=O)[C@H](CCCCN)NC(=O)[C@H](C)NC(=O)[C@@H](N)Cc1ccccc1)C(N)=O", "MEASURED ON": "Pseudomonas aeruginosa ATCC 9027", "MEASUREMENT": 3.43}

Please look at the following molecule next.
q: Sample NC(=O)[C@H](Cc1c[nH]c2ccccc12)NC(=O)[C@H](CCCN=C(N)N)NC(=O)[C@H](Cc1c[nH]c2ccccc12)NC(=O)[C@H](CCCN=C(N)N)NC(=O)[C@H](Cc1c[nH]c2ccccc12)NC(=O)[C@H](CCCN=C(N)N)NC(=O)[C@H](Cc1c[nH]c2ccccc12)NC(=O)[C@@H](N)CCCN=C(N)N — what was its MIC?
a: 50
